Reported MIC values are given for each entry in this list.
tested on: Vero; test: Minimum inhibitory concentration required to reduce virus induced cytopathicity by 50% was determined against measles virus in Vero cells; format: functional; settings: Chlorocebus sabaeus

Request: Look at this compound and give its reported MIC. O=c1[nH]c(=O)n([C@H]2C[C@H](O)[C@@H](CO)O2)cc1/C=C/Br
Response: > 400 µg/mL

Request: Look at this compound and give its reported MIC. Oc1ncnc2c1ncn2C1C[C@H](O)[C@H](O)[C@@H]1O (stereo partly drawn)
Response: > 100 µg/mL

More entries:
Request: Look at this compound and give its reported MIC. Nc1nc(O)c2ncn(C3C[C@H](O)[C@H](O)[C@@H]3O)c2n1 (stereo partly drawn)
Response: > 100 µg/mL
